# TrkB (Homo sapiens): IC50 values follow
# Sequence (Q16620 32-822): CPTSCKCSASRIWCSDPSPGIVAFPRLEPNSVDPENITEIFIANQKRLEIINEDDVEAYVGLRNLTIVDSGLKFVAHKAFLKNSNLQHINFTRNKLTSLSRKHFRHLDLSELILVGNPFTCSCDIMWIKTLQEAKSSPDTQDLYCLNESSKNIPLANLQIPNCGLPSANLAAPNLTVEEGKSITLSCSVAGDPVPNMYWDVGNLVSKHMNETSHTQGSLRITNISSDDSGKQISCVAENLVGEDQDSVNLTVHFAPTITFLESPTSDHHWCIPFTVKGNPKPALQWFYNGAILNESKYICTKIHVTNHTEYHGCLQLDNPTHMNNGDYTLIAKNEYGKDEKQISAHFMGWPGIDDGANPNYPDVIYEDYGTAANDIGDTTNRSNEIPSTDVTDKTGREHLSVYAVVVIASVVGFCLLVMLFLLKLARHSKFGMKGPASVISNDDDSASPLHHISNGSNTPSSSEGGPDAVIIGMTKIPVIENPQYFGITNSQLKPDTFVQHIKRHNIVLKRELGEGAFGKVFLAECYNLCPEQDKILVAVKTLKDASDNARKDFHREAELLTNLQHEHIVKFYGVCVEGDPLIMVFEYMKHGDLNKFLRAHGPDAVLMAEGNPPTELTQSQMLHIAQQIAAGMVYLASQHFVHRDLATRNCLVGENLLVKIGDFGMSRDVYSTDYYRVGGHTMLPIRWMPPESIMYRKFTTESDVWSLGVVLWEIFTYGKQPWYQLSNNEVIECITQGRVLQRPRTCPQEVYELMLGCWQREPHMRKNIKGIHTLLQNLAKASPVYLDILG

INSERT INTO assay_data (compound, study_system, result_value) VALUES
  ('O=C(Nc1ccc(N2CCOCC2)cc1)N1CCC(c2ncnc3cc(OCCCO)ccc23)CC1 [Compound 77]', 'TrkB (Homo sapiens)', '> 20 µM'),
  ('COc1cc2ncnc(C3CCN(C(=O)Nc4ccc(-c5cncnc5)cc4)CC3)c2cc1OC [Compound 58]', 'TrkB (Homo sapiens)', '> 42 µM');

Could you now consider this next compound?
Form field IC50, entry CC(=O)N1CCN(CCCOc2ccc3c(C4CCN(C(=O)Nc5ccc(N6CCOCC6)cc5)CC4)ncnc3c2)CC1 [Compound 117] : > 20 µM

* * *

Entries and their measured IC50 follow.
# study_system: isolated kinase domain of the human c-kit receptor (Homo sapiens, UniProt P10721)
# Construct: isolated kinase domain of the human c-kit receptor; purchased ProQinase lot SP005
# Sequence (P10721 589-937 limits assumed): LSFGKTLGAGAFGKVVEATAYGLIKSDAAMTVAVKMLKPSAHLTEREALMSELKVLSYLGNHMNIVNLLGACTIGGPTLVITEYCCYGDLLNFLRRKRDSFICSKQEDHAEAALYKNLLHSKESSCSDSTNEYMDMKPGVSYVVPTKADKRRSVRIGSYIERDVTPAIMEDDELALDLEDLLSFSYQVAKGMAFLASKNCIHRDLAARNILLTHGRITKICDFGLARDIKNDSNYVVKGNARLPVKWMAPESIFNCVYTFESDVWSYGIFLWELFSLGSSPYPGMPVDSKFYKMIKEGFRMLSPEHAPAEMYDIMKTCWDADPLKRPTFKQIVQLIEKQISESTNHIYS
# test_description: c-Kit Fluorescence Polarization Kinase Assay
# Format: biochemical
# cond: uncertainty ±10%; read-out: ckit IC50
Structures can show the parent of a compound that is named as a salt.
Express the reported value numerically, then name its unit.

INSERT INTO results (compound, measured_property, result_value) VALUES
  ('CN1CCN(CCCOc2ccc3c(C4CCN(C(=O)Nc5ccc(N6CCOCC6)cc5)CC4)ncnc3c2)CC1', 'IC50', '40 nM'),
  ('O=C1CCCN1CCCOc1ccc2c(C3CCN(C(=O)Nc4ccc(N5CCOCC5)cc4)CC3)ncnc2c1', 'IC50', '28 nM'),
  ('COc1cc2ncnc(C3CCN(C(=O)Nc4ccc(OC5CCC5)nc4)CC3)c2cc1OC', 'IC50', '77.5 nM'),
  ('COc1cc2ncnc(C3CCN(C(=O)Nc4ccc(OC(C)C)cc4)CC3)c2cc1OC [Compound 1, hydrochloride]', 'IC50', '82.5 nM');

Form field IC50, entry CN1CCN(CCCOc2ccc3c(C4CCN(C(=O)Nc5ccc(N6CCOCC6)nc5)CC4)ncnc3c2)CC1 : 160 nM

Origin of measurements: patent US8071768B2
